pIC50: −log10 of the molar value.
Observed pIC50 values for human norepinephrine transporter expressed in CHO cells (Homo sapiens) are listed in what follows.
endpoint: pIC50

| line.notation | endpoint | obs.value |
| --- | --- | --- |
| CC(C)C[C@@H]1NC(=O)[C@@H]2CCCN2C1=O | pIC50 | 2.70 |
| CC(C)[C@@H]1NC(=O)[C@@H]2CCCN2C1=O | pIC50 | 1.97 |

====

- subject.of.test: human serotonin transporter expressed in CHO cells (Homo sapiens, UniProt P31645)
- Construct: expressed in transfected cells; host or cells: CHO cells
- Sequence (P31645 whole entry): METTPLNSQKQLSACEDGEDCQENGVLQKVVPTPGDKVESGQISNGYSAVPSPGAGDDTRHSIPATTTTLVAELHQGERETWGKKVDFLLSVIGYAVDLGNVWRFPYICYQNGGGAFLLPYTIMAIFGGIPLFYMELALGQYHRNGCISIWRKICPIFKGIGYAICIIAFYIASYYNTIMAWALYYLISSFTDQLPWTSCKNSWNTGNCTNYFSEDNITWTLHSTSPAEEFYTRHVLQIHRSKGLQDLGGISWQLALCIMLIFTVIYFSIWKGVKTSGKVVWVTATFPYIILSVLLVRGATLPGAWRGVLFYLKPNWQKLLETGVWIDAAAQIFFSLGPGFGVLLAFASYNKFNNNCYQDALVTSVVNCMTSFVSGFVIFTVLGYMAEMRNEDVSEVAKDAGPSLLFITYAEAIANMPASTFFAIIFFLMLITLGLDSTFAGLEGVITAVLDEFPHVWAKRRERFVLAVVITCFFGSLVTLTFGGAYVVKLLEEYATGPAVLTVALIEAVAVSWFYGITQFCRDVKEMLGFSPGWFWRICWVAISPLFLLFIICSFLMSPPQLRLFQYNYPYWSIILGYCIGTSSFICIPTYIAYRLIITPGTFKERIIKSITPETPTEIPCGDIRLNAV
- assay.name: Inhibitory activity on serotonin transporter binding (3H-imipramine)
- particulars: read-out: concentration (IC50) required for 50% inhibition of serotonin transporter binding
pIC50: −log10 of the molar value.

| line.notation | pIC50 |
| --- | --- |
| O=C1N[C@@H](Cc2ccccc2)C(=O)N[C@H]1Cc1ccccc1 | 5.09 |
